- TGT: T1, monkey GPC3-His protein (monkey)
- T1 construct: Bought protein; also called monkey GPC3 protein
- PROTOCOL DETAILS: ELISA, monkey GPC3-His coated; antibody 0.11 nM
EXPERIMENTAL ENDPOINT: OD450 nm
Keep it simple and answer with nothing but the number.

hAb001H2L1 (antibody, human IgG1, V domains shown, Humanized F2.169.2, H2+L1) VH: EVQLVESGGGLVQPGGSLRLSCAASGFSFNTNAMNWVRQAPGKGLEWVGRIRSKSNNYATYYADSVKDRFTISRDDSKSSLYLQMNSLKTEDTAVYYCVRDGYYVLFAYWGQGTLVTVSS VL: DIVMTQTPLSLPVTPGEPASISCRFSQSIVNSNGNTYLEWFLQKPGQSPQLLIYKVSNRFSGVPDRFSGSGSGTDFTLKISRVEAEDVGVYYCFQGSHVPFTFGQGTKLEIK :: 2.11

Looking up hAb001H2L1b (antibody, human IgG1, V domains shown, Humanized F2.169.2, H2+L1b) VH: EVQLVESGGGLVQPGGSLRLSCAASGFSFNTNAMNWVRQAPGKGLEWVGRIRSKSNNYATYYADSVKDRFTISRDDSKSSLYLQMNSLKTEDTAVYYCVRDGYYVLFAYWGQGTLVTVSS VL: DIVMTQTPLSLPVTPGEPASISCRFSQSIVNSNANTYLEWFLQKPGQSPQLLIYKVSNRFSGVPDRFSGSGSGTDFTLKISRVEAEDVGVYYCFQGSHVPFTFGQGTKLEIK , I found its OD450 nm recorded as 1.93

Looking up hAb001H1aL1 (antibody, human IgG1, V domains shown, Humanized F2.169.2, H1a+L1) VH: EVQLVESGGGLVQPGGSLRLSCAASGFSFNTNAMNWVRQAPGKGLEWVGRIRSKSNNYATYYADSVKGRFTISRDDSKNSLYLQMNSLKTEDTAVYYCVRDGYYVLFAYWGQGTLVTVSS VL: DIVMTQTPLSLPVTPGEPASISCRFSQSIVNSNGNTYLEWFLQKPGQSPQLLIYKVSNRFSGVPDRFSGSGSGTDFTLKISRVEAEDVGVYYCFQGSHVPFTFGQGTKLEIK , I found its OD450 nm recorded as 2

Looking up hAb001H1L1 (antibody, human IgG1, V domains shown, Humanized F2.169.2, H1+L1) VH: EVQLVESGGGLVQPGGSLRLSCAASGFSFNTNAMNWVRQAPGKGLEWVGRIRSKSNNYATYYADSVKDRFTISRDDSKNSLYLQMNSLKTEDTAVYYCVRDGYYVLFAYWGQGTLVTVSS VL: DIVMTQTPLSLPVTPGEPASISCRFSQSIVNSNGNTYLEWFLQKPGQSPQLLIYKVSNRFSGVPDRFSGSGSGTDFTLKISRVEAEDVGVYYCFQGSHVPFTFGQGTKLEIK , I found its OD450 nm recorded as 1.96

Looking up hAb007LH2L1b (antibody, human IgG1, V domains shown, Humanized F3.81.19, H2+L1b) VH: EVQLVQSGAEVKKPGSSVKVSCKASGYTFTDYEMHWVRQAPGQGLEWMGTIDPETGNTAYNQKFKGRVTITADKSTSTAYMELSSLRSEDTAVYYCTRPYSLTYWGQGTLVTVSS VL: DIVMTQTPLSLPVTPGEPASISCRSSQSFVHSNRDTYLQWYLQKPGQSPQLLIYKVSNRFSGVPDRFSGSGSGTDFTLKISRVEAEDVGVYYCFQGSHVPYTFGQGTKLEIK , I found its OD450 nm recorded as 0.967
